Tested on: CCRF-CEM

# molecule, result.unit, GI50
rows = [
    ("O=C1C=C(NC(=O)[C@H](Cc2ccccc2)n2cccc2)C(=O)c2ccccc21", "nM", 1110),
    ("COc1cccc(OC)c1N(Cc1ccoc1)C(=O)C(=O)NC1=CC(=O)c2ccccc2C1=O", "nM", 437),
    ("C=CCN(C(=O)C(=O)NC1=CC(=O)c2ccccc2C1=O)c1ccsc1C(=O)OC", "nM", 1300),
    ("C[C@]12C3=C(C(=O)c4ccccc4C3=O)N3C(=O)C(=O)N4C[C@H]5C[C@@]16CC6[C@@]5(C)[C@@]432 (some centres unmarked)", "nM", 1230),
    ("C=CCN(C(=O)C(=O)NC1=CC(=O)c2ccccc2C1=O)c1c(OC)cccc1OC", "nM", 781),
]

----------
Test system: RPMI-8226
protocol: NCI five-dose testing, RPMI-8226
protocol.conditions: Leukemia, RPMI-8226
TGI values by entry
quantity.kind: TGI

# smiles.input, result
records = [
    ("COC1=C[C@H]2[C@H]3C[C@@H]1CN1C(=O)C(=O)N4C5=C(C(=O)c6ccccc6C5=O)[C@]3(OC)[C@]214", "2.05 × 10^−6"),
    ("C=CCN(C(=O)C(=O)NC1=CC(=O)c2ccccc2C1=O)c1c(OC)cccc1OC", "2.22 × 10^−6"),
    ("C=CCN(C(=O)C(=O)NC1=CC(=O)c2ccccc2C1=O)c1ccsc1C(=O)OC", "2.79 × 10^−6"),
    ("COc1cccc(OC)c1N(Cc1ccoc1)C(=O)C(=O)NC1=CC(=O)c2ccccc2C1=O", "2.57 × 10^−6"),
]

----------
System: T-47D
protocol: NCI five-dose testing, T-47D
protocol.conditions: Homo sapiens, T47D, read-out: LC50
CC50 values by entry

# smiles.input, result.unit, CC50
records = [
    ("C=CCN(C(=O)C(=O)NC1=CC(=O)c2ccccc2C1=O)c1ccsc1C(=O)OC", "µM", 5.14),
    ("COc1cccc(OC)c1N(Cc1ccoc1)C(=O)C(=O)NC1=CC(=O)c2ccccc2C1=O", "µM", 5.34),
    ("O=C1C=C(NC(=O)[C@H](Cc2ccccc2)n2cccc2)C(=O)c2ccccc21", "µM", 5.26),
    ("O=C1C2=C(C(=O)c3ccccc31)N1C(=O)N(Cc3ccccc3)C[C@@]13C=C[C@@H]2O3", "µM", 7.64),
    ("C=CCN(C(=O)C(=O)NC1=CC(=O)c2ccccc2C1=O)c1c(OC)cccc1OC", "µM", 5.33),
]

----------
System: CCRF-CEM
protocol: NCI five-dose testing, CCRF-CEM
protocol.conditions: Leukemia
TGI values by entry
quantity.kind: TGI

# compound, quantity.kind, result
data = [
    ("C=CCN(C(=O)C(=O)NC1=CC(=O)c2ccccc2C1=O)c1ccsc1C(=O)OC", "TGI", "2.57 × 10^−6"),
    ("C[C@]12C3=C(C(=O)c4ccccc4C3=O)N3C(=O)C(=O)N4C[C@H]5C[C@@]16CC6[C@@]5(C)[C@@]432 (some centres unmarked)", "TGI", "2.48 × 10^−6"),
    ("C=CCN(C(=O)C(=O)NC1=CC(=O)c2ccccc2C1=O)c1c(OC)cccc1OC", "TGI", "2.04 × 10^−6"),
    ("COc1cccc(OC)c1N(Cc1ccoc1)C(=O)C(=O)NC1=CC(=O)c2ccccc2C1=O", "TGI", "1.48 × 10^−6"),
    ("O=C1C=C(NC(=O)[C@H](Cc2ccccc2)n2cccc2)C(=O)c2ccccc21", "TGI", "2.32 × 10^−6"),
]
